Test: chemical genetic growth profiling, strain panel (AID 1159580);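 further: tested at 20 µM; growth read once vehicle control cultures reached saturation at 30 °C; 1 = growth at the plate median or of vehicle wells; lower values mean less growth of the strain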
Settings: S. cerevisiae deletion strains, growth OD, locus YKL085W, strain MDH1 (second series), stronger effect = lower value
Among all 5,500 compounds or so, about 2,000 (36%) were called active. Roughly 18% stayed inconclusive and do not appear here. This is one part of the list.
Give normalized growth for every item shown.
Format: numeric value only, no unit, no commentary.

Q: Look up normalized growth of C[C@@H]1CC[C@@]23CCC4(C)[C@@](C=CC5[C@@]6(C)CC[C@H](O)C(C)(C)C6CC[C@]54C)(OC2=O)C3[C@H]1C (stereo not given in full) and report it.
A: 1

Q: Look up normalized growth of `N#Cc1c(Cl)cccc1Cl` and report it.
A: 1.01

Q: Look up normalized growth of `Nc1nc(/C(=C/CC(=O)O)C(=O)N[C@@H]2C(=O)N3C(C(=O)O)=CCS[C@H]23)cs1` and report it.
A: 0.987

Q: Look up normalized growth of COC(=O)CC1C(C)(C)C(OC(C)=O)[C@@H]2[C@@H](OC(C)=O)[C@]34O[C@@]2(O)[C@]1(C)C3CC[C@]1(C)C4=CC(=O)O[C@H]1c1ccoc1 (stereo not given in full) and report it.
A: 1.01

Q: Look up normalized growth of `O=C(O)c1cc(O)ccc1O` and report it.
A: 1

Q: Look up normalized growth of `O=C(O)CN(CCN(CC(=O)O)CC(=O)O)CC(=O)O` and report it.
A: 1.03

Q: Look up normalized growth of `O=C(/C=C(\O)c1ccccc1)c1ccccc1O` and report it.
A: 0.963

Q: Look up normalized growth of `CC1(C)S[C@@H]2[C@H](NC(=O)[C@@H](N)c3ccc(O)cc3)C(=O)N2[C@H]1C(=O)O` and report it.
A: 1.01

Q: Look up normalized growth of CSCCC(N)C(=O)NC(CC(C)C)C(=O)NC(Cc1ccccc1)C(=O)O (stereo not given) and report it.
A: 1

Q: Look up normalized growth of `O=C(O)c1ccccc1O` and report it.
A: 0.989

====

Assay: chemical genetic growth profiling, strain panel (AID 1159580);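 further: tested at 20 µM; growth read once vehicle control cultures reached saturation at 30 °C; 1 = growth at the plate median or of vehicle wells; lower values mean less growth of the strain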
Conditions: S. cerevisiae deletion strains, growth OD, locus YDL101C, strain DUN1, stronger effect = lower value
Screen size: about 5,500 compounds; about 2,000 (36%) were called active. Roughly 18% stayed inconclusive and do not appear here. This is one part of the list.
PARAMETER: normalized growth
Format: numeric value only, no unit, no commentary.

Q: Look up normalized growth of `O=C1Nc2ccccc2/C1=C\c1cccc2ccccc12` and report it.
A: 0.985

Q: Look up normalized growth of `O=c1[nH][nH]c(=O)n1CCCc1cc2cccc3ccc4cccc1c4c32` and report it.
A: 0.984

Q: Look up normalized growth of `O=C1Nc2ccccc2/C1=C\c1c[nH]c2ccccc12` and report it.
A: 0.491

Q: Look up normalized growth of C[C@@H]1CC[C@@]23CCC4(C)[C@@](C=CC5[C@@]6(C)CCC(=O)C(C)(C)C6CC[C@]54C)(OC2=O)C3[C@H]1C (stereo partly specified) and report it.
A: 1.03

Q: Look up normalized growth of `CO[C@@H]1[C@@H](OC(N)=O)[C@@H](O)[C@H](Oc2ccc3c(O)c(NC(=O)c4ccc(O)c(CC=C(C)C)c4)c(=O)oc3c2C)OC1(C)C` and report it.
A: 1.02

Q: Look up normalized growth of `CC(=O)CS(=O)(=O)c1ccc(Cl)cc1` and report it.
A: 1.01

Q: Look up normalized growth of `Cc1ccc(C(C)C)c(O)c1C(=O)O` and report it.
A: 0.999

Q: Look up normalized growth of `CC(C)/C(=N/OC(=O)c1ccc([N+](=O)[O-])cc1)c1ccccc1` and report it.
A: 0.952

Q: Look up normalized growth of CC(=O)O[C@@H]1CC2C(C)(CC[C@H](O)C2(C)C)C2CC[C@]3(C)C(=CC(=O)O[C@H]3c3ccoc3)C21C (stereo partly specified) and report it.
A: 1

Q: Look up normalized growth of `COC1=CC(=O)C=C(OC)C1=O` and report it.
A: 0.975

Q: Look up normalized growth of `CC1(C)C=Cc2cc(/C(N)=N\OC(=O)Nc3cccc(C(F)(F)F)c3)ccc2O1` and report it.
A: 0.988

Q: Look up normalized growth of `O=C1C(c2ccc(Br)cc2)=C(O)c2ccccc21` and report it.
A: 0.953

Q: Look up normalized growth of `CN(C)CC[C@H](c1ccc(Cl)cc1)c1ccccn1` and report it.
A: 0.998

Q: Look up normalized growth of `COc1ccc(Br)c(C(=O)/C(C#N)=C/c2cccs2)c1` and report it.
A: 0.676

Q: Look up normalized growth of OC(COCc1ccccc1)Cn1c2ccccc2c2ccccc21 (stereo unspecified) and report it.
A: 0.98

Q: Look up normalized growth of `CSc1cc(C(F)(F)F)cc(SC)c1SC` and report it.
A: 0.992

Q: Look up normalized growth of `COc1cc(C(=O)N2CCOCC2)cc(OC)c1OC` and report it.
A: 1.02

Q: Look up normalized growth of `N/C(=N/OC(=O)c1cnn(-c2ccc([N+](=O)[O-])cc2)c1C(F)(F)F)c1ccc(Cl)cc1` and report it.
A: 0.992

Q: Look up normalized growth of NS(=O)(=O)c1cc2c(cc1C(F)(F)F)NC(Cc1ccccc1)NS2(=O)=O (stereo unspecified) and report it.
A: 1

Q: Look up normalized growth of `NC(=NS(=O)(=O)c1cc(Cl)c(Oc2ccc([N+](=O)[O-])cc2Cl)c(Cl)c1)c1cccnc1` and report it.
A: 0.976

Q: Look up normalized growth of `CC(C)Nc1nc(Cl)nc(NC(C)C)n1` and report it.
A: 1.01

Q: Look up normalized growth of CC1CC(=O)Nc2ccccc2N1C(=O)c1ccc([N+](=O)[O-])cc1 (stereo unspecified) and report it.
A: 1.05

Q: Look up normalized growth of `O=c1cc(CSc2ccc(Cl)cc2)c2ccc(O)cc2o1` and report it.
A: 0.974

Q: Look up normalized growth of `Cc1ccc(NC(=O)CC#N)c(C)c1` and report it.
A: 0.979

Q: Look up normalized growth of `COc1ccc(-c2cc(=O)c3c(O)cc(O)cc3o2)cc1O` and report it.
A: 0.998

Q: Look up normalized growth of NC[C@H]1O[C@H](OC2[C@@H](N)C[C@@H](N)[C@H](O[C@H]3O[C@H](CO)[C@@H](O)[C@H](N)[C@H]3O)[C@H]2O)[C@H](O)[C@@H](O)[C@@H]1O (stereo partly specified) and report it.
A: 0.986

Q: Look up normalized growth of `CCCCCCCCCCCCSc1nnc(N)s1` and report it.
A: 1.05

Q: Look up normalized growth of `COC(=O)/C=C1/OC(c2ccc(OC)cc2)=CC1=O` and report it.
A: 0.447

Q: Look up normalized growth of `O=C(Nc1ccc(OC(F)(F)F)cc1)Nc1cccc(C(=O)O)c1` and report it.
A: 1.01

Q: Look up normalized growth of `O=C(O)CN(CCN(CC(=O)O)CC(=O)O)CC(=O)O` and report it.
A: 0.889

Q: Look up normalized growth of `COc1cc(C)c2c(=O)c3c(O)cc(O)cc3oc2c1` and report it.
A: 0.974

Q: Look up normalized growth of CC1(C)C(=O)CC[C@@]2(C)C1C[C@@H](O)[C@@]1(C)C3=CC(=O)O[C@@H](c4ccoc4)[C@]3(C)CCC21 (stereo partly specified) and report it.
A: 1.03

Q: Look up normalized growth of O=c1c(O)cccc2c(C3Oc4cc(O)cc(O)c4CC3O)cc(O)c(O)c12 (stereo unspecified) and report it.
A: 0.219

Q: Look up normalized growth of NCC(O)CC(=O)O (stereo unspecified) and report it.
A: 1.01

Q: Look up normalized growth of CC1(C)S[C@@H]2C(N3C(=O)[C@@H](c4ccccc4)NC3(C)C)C(=O)N2[C@H]1C(=O)O (stereo partly specified) and report it.
A: 1.01

Q: Look up normalized growth of `CC(C)(C)C1=CC(=O)C=C(C(C)(C)C)C1=O` and report it.
A: 0.997

Q: Look up normalized growth of `O=C1/C(=C/c2c[nH]c3ccccc23)CSc2ccccc21` and report it.
A: 0.98

Q: Look up normalized growth of `CNC[C@H](O)c1cccc(O)c1` and report it.
A: 1.01

Q: Look up normalized growth of C/C=C/CC(C)C(O)C1C(=O)NC(CC)C(=O)N(C)CC(=O)N(C)C(CC(C)C)C(=O)NC(C(C)C)C(=O)N(C)C(CC(C)C)C(=O)NC(C)C(=O)NC(C)C(=O)N(C)C(CC(C)C)C(=O)N(C)C(CC(C)C)C(=O)N(C)C(C(C)C)C(=O)N1C (stereo unspecified) and report it.
A: 0.988

Q: Look up normalized growth of CCOC(=O)C1C(=O)C=C(c2cccs2)CC1c1ccc(OC)c(OC)c1Cl (stereo unspecified) and report it.
A: 0.995

Q: Look up normalized growth of `COc1ccc(-c2cc(=O)c3c(O)cc(O)c(-c4cc(-c5cc(=O)c6c(O)cc(O)cc6o5)ccc4OC)c3o2)cc1` and report it.
A: 1.01
